I'd be grateful if you could share measured Bliss excess for these entries.
tested on: RCM-1 (Colorectal Carcinoma); assay: Bliss excess, mean over the matrix (fraction); higher = more synergy

### Prompt Specify Bliss excess for CN(CCO)CC[C@H](CSc1ccccc1)Nc1ccc(S(=O)(=O)NC(=O)c2ccc(N3CCC([C@@H](O)c4ccccc4-c4ccc(Cl)cc4)CC3)cc2)cc1S(=O)(=O)C(F)(F)F [AZD4320] + Cn1cnc2c(F)c(Nc3ccc(Br)cc3Cl)c(C(=O)NOCCO)cc21 [Selumetinib] (first compound max 1 µM, 7x7, partner max 3 µM) and stop.
### Response 0.0333

### Prompt Specify Bliss excess for NC1(C(=O)N[C@@H](CCO)c2ccc(Cl)cc2)CCN(c2ncnc3[nH]ccc23)CC1 [Capivasertib] + Cn1cnc2c(F)c(Nc3ccc(Br)cc3Cl)c(C(=O)NOCCO)cc21 [Selumetinib] (first compound max 10 µM, 7x7, partner max 10 µM) and stop.
### Response 0.019

### Prompt Specify Bliss excess for C[C@@H](Oc1cc(-c2cnn(C3CCNCC3)c2)cnc1N)c1c(Cl)ccc(F)c1Cl [Crizotinib] + CC1=C(C(=CC=C1)Cl)NC(=O)C2=CN=C(S2)NC3=CC(=NC(=N3)C)N4CCN(CC4)CCO [Dasatinib] (first compound max 10 µM, 7x7, partner max 2 µM) and stop.
### Response -0.0081

### Prompt Specify Bliss excess for Cn1cnc2c(F)c(Nc3ccc(Br)cc3Cl)c(C(=O)NOCCO)cc21 [Selumetinib] + CC(C)n1c(=O)n(C)c2cnc3cc(F)c(-c4ccc(OCCCN5CCCCC5)nc4)cc3c21 [AZD1390] (first compound max 10 µM, 7x7, partner max 0.3 µM) and stop.
### Response -0.0495

### Prompt Specify Bliss excess for CC(=O)c1c(C)c2cnc(Nc3ccc(N4CCNCC4)cn3)nc2n(C2CCCC2)c1=O [Palbociclib] + Cn1cnc2c(F)c(Nc3ccc(Br)cc3Cl)c(C(=O)NOCCO)cc21 [Selumetinib] (first compound max 10 µM, 7x7, partner max 10 µM) and stop.
### Response -0.0286

### Prompt Specify Bliss excess for O=C(c1cc(Cc2n[nH]c(=O)c3ccccc23)ccc1F)N1CCN(C(=O)C2CC2)CC1 [Olaparib] + COc1nnc2ccc(N3CCC(c4ccc(OCCN5CCN(C)C(=O)[C@H]5C)cc4)CC3)nn12 [AZD5153] (first compound max 10 µM, 7x7, partner max 1 µM) and stop.
### Response -0.0473

### Prompt Specify Bliss excess for CS(=O)(=O)CCNCc1ccc(-c2ccc3ncnc(Nc4ccc(OCc5cccc(F)c5)c(Cl)c4)c3c2)o1 [Lapatinib] + C[C@@H](Oc1cc(-c2cnn(C3CCNCC3)c2)cnc1N)c1c(Cl)ccc(F)c1Cl [Crizotinib] (first compound max 10 µM, 7x7, partner max 10 µM) and stop.
### Response -0.0107

### Prompt Specify Bliss excess for CC1(C)CCC(CN2CCN(c3ccc(C(=O)NS(=O)(=O)c4ccc(NCC5CCOCC5)c([N+](=O)[O-])c4)c(Oc4cnc5[nH]ccc5c4)c3)CC2)=C(c2ccc(Cl)cc2)C1 [Venetoclax] + C[C@@H]1COCCN1C2=NC(=NC(=C2)C3(CC3)[S@](=N)(=O)C)C4=C5C=CNC5=NC=C4 [AZD6738] (first compound max 1 µM, 7x7, partner max 10 µM) and stop.
### Response -0.0542

### Prompt Specify Bliss excess for C[C@@H](Nc1cc(F)cc(F)c1)c1cc(C(=O)N(C)C)cc2c(=O)cc(N3CCOCC3)oc12 [AZD8186] + C1CN(CCC1(C(=O)N[C@@H](CCO)C2=CC=C(C=C2)Cl)N)C3=NC=NC4=C3C=CN4 [AZD5363] (first compound max 10 µM, 7x7, partner max 10 µM) and stop.
### Response 0.0062

### Prompt Specify Bliss excess for COc1cccc(OCCCN)c1-c1cc(Nc2cnc(C#N)cn2)n[nH]1 [Prexasertib] + C[C@@H]1COCCN1C2=NC(=NC(=C2)C3(CC3)[S@](=N)(=O)C)C4=C5C=CNC5=NC=C4 [AZD6738] (first compound max 1 µM, 7x7, partner max 10 µM) and stop.
### Response -0.0307

### Prompt Specify Bliss excess for COc1cccc(OCCCN)c1-c1cc(Nc2cnc(C#N)cn2)n[nH]1 [Prexasertib] + C=CCn1c(=O)c2cnc(Nc3ccc(N4CCN(C)CC4)cc3)nc2n1-c1cccc(C(C)(C)O)n1 [AZD1775] (first compound max 1 µM, partner max 1 µM) and stop.
### Response -0.0248

### Prompt Specify Bliss excess for NC1(C(=O)N[C@@H](CCO)c2ccc(Cl)cc2)CCN(c2ncnc3[nH]ccc23)CC1 [Capivasertib] + C[C@@H]1COCCN1C2=NC(=NC(=C2)C3(CC3)[S@](=N)(=O)C)C4=C5C=CNC5=NC=C4 [AZD6738] (first compound max 10 µM, 7x7, partner max 10 µM) and stop.
### Response -0.0863

### Prompt Specify Bliss excess for Cc1nc(Nc2ncc(C(=O)Nc3c(C)cccc3Cl)s2)cc(N2CCN(CCO)CC2)n1 [Dasatinib] + CC(=O)Nc1cccc(-n2c(=O)n(C3CC3)c(=O)c3c(Nc4ccc(I)cc4F)n(C)c(=O)c(C)c32)c1 [Trametinib] (first compound max 2 µM, 7x7, partner max 1 µM) and stop.
### Response 0.018

### Prompt Specify Bliss excess for Cc1c2c(nn1C)CSCc1cc(n(C)n1)CSc1cc(c3ccccc3c1)OCCCc1c(C(=O)O)n(C)c3c-2c(Cl)ccc13 [AZD5991] + Cc1cc2ncnn2cc1Nc1ncc2c(n1)n(C1CCOCC1)c(=O)n2C [AZD7648] (first compound max 1 µM, 7x7, partner max 10 µM) and stop.
### Response -0.0149

* * *

I'd be grateful if you could share measured combination Emax for these entries.
test system: LB996-RCC (Kidney Carcinoma); experiment: combination Emax (second highest fraction inhibited in the dose matrix, 72 h); higher = more inhibition; extreme values may be limits of the assay
Just the number, please, no unit after it.

### Prompt Specify combination Emax for CCN(CCO)CCCOc1ccc2c(Nc3cc(CC(=O)Nc4cccc(F)c4)[nH]n3)ncnc2c1 [AZD2811] + C=CCn1c(=O)c2cnc(Nc3ccc(N4CCN(C)CC4)cc3)nc2n1-c1cccc(C(C)(C)O)n1 [AZD1775] (first compound max 1 µM, partner max 1 µM) and stop.
### Response 0.842

### Prompt Specify combination Emax for CC(=O)c1c(C)c2cnc(Nc3ccc(N4CCNCC4)cn3)nc2n(C2CCCC2)c1=O [Palbociclib] + CC1(C)CCC(CN2CCN(c3ccc(C(=O)NS(=O)(=O)c4ccc(NCC5CCOCC5)c([N+](=O)[O-])c4)c(Oc4cnc5[nH]ccc5c4)c3)CC2)=C(c2ccc(Cl)cc2)C1 [Venetoclax] (first compound max 10 µM, 7x7, partner max 1 µM) and stop.
### Response 0.318

### Prompt Specify combination Emax for COc1cc2ncnc(Nc3ccc(F)c(Cl)c3)c2cc1OCCCN1CCOCC1 [Gefitinib] + CC(C)n1c(=O)n(C)c2cnc3cc(F)c(-c4ccc(OCCCN5CCCCC5)nc4)cc3c21 [AZD1390] (first compound max 10 µM, 7x7, partner max 0.3 µM) and stop.
### Response 0.391

### Prompt Specify combination Emax for Cc1c2c(nn1C)CSCc1cc(n(C)n1)CSc1cc(c3ccccc3c1)OCCCc1c(C(=O)O)n(C)c3c-2c(Cl)ccc13 [AZD5991] + C1CN(CCC1(C(=O)N[C@@H](CCO)C2=CC=C(C=C2)Cl)N)C3=NC=NC4=C3C=CN4 [Capivasertib] (first compound max 1 µM, 7x7, partner max 3 µM) and stop.
### Response 0.433

### Prompt Specify combination Emax for C[C@@H](c1ccc2nccn2c1)n1nnc2ncc(-c3cnn(C)c3)nc21 [Savolitinib] + Cc1c2c(nn1C)CSCc1cc(n(C)n1)CSc1cc(c3ccccc3c1)OCCCc1c(C(=O)O)n(C)c3c-2c(Cl)ccc13 [AZD5991] (first compound max 1 µM, 7x7, partner max 1 µM) and stop.
### Response 0.125

### Prompt Specify combination Emax for CC1(C)CCC(CN2CCN(c3ccc(C(=O)NS(=O)(=O)c4ccc(NCC5CCOCC5)c([N+](=O)[O-])c4)c(Oc4cnc5[nH]ccc5c4)c3)CC2)=C(c2ccc(Cl)cc2)C1 [Venetoclax] + Cc1cc2ncnn2cc1Nc1ncc2c(n1)n(C1CCOCC1)c(=O)n2C [AZD7648] (first compound max 1 µM, 7x7, partner max 10 µM) and stop.
### Response 0.373

* * *

test system: CAL-120 (Breast Carcinoma); assay: Bliss excess, mean over the matrix (fraction); higher = more synergy
I'd be grateful if you could share measured Bliss excess for these entries.
Just the number, please, no unit after it.

### Prompt Specify Bliss excess for CC1(C)CCC(CN2CCN(c3ccc(C(=O)NS(=O)(=O)c4ccc(NCC5CCOCC5)c([N+](=O)[O-])c4)c(Oc4cnc5[nH]ccc5c4)c3)CC2)=C(c2ccc(Cl)cc2)C1 [Venetoclax] + C=CCn1c(=O)c2cnc(Nc3ccc(N4CCN(C)CC4)cc3)nc2n1-c1cccc(C(C)(C)O)n1 [AZD1775] (first compound max 1 µM, partner max 1 µM) and stop.
### Response -0.0309

### Prompt Specify Bliss excess for CN(CCO)CC[C@H](CSc1ccccc1)Nc1ccc(S(=O)(=O)NC(=O)c2ccc(N3CCC([C@@H](O)c4ccccc4-c4ccc(Cl)cc4)CC3)cc2)cc1S(=O)(=O)C(F)(F)F [AZD4320] + C[C@@H]1COCCN1C2=NC(=NC(=C2)C3(CC3)[S@](=N)(=O)C)C4=C5C=CNC5=NC=C4 [AZD6738] (first compound max 1 µM, 7x7, partner max 10 µM) and stop.
### Response -0.0313
